Target: TAAR1 (Mus musculus, UniProt Q923Y8)
Construct: expressed in transfected cells; host or cells: HEK293 (ATCC # CRL-1573), stably transfected with pIRESneo2 expression plasmid; membranes prepared
Sequence (Q923Y8 whole entry): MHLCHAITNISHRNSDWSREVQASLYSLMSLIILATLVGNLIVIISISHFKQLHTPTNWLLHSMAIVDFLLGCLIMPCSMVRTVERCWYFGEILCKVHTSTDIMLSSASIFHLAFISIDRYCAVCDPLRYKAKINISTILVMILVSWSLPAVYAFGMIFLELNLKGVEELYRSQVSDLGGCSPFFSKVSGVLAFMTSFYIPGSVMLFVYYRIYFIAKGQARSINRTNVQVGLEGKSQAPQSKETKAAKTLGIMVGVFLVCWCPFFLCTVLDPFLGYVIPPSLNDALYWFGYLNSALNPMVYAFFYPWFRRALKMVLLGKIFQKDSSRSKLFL
Experiment: Radioligand binding assay on membranes of HEK293 cells stably expressing TAAR1
Settings: mouse TAAR1; radioligand [3H]-rac-2-(1,2,3,4-tetrahydro-1-naphthyl)-2-imidazoline at 60 nM; 4° C., 30 min
Counter-ions that a name gives are not always drawn.
Endpoint: Ki

[[record]]
compound = "CCc1ccccc1CC1=NCCN1 [Example 54]"
endpoint_value = "0.016 µM"

[[record]]
compound = "COc1cc(C)c(Cc2ncc[nH]2)c(C)c1 [Example 73]"
endpoint_value = "0.049 µM"

[[record]]
compound = "[3H]c1ccc(CC)c(Cc2ncc[nH]2)c1CC [Example 112]"
endpoint_value = "0.025 µM"

[[record]]
compound = "Cc1sc(C)c(Cc2ncc[nH]2)c1C [Example 110]"
endpoint_value = "0.021 µM"

[[record]]
compound = "CCc1ccc(F)c(CC)c1Cc1ncc[nH]1 [Example 202]"
endpoint_value = "0.034 µM"

[[record]]
compound = "Cc1cc(C)c(CC2=NCCN2)c(C)c1 [Example 118, reference compound]"
endpoint_value = "0.017 µM"

[[record]]
compound = "Cc1cc(C(C)(C)C)c(O)c(C)c1CC1=NCCN1 [Example 117, reference compound]"
endpoint_value = "0.008 µM"

[[record]]
compound = "Brc1ccccc1CC1=NCCN1 [Example 124]"
endpoint_value = "0.044 µM"

[[record]]
compound = "Nc1c(Cl)cc(CC2=NCCN2)cc1Cl [Example 125, reference compound]"
endpoint_value = "0.048 µM"

[[record]]
compound = "Cc1cc(C)c(Cc2ncc[nH]2)c(C)c1 [Example 137, 2-(2,4,6-Trimethyl-benzyl)-1H-imidazole]"
endpoint_value = "0.038 µM"

[[record]]
compound = "COc1cc(C)c(CC2=NCCN2)cc1C [Example 33, hydrochloride]"
endpoint_value = "0.014 µM"

[[record]]
compound = "Cc1cc(C)c(C)c(Cc2ncc[nH]2)c1C [Example 71]"
endpoint_value = "0.01 µM"

[[record]]
compound = "Brc1c(CC2=NCCN2)ccc2ccccc12 [Example 175]"
endpoint_value = "0.011 µM"

[[record]]
compound = "c1cc(CC2=NCCN2)c2occc2c1 [Example 107]"
endpoint_value = "0.022 µM"

[[record]]
compound = "Cc1c(C)c(C)c(Cc2ncc[nH]2)c(C)c1C [Example 72, 2-Pentamethylphenylmethyl-1H-imidazole]"
endpoint_value = "0.017 µM"

[[record]]
compound = "CCc1ccc(Br)c(CC)c1Cc1ncc[nH]1 [Example 77]"
endpoint_value = "0.026 µM"

[[record]]
compound = "Clc1ccc(CC2=NCCN2)cc1Cl [Example 121]"
endpoint_value = "0.023 µM"

[[record]]
compound = "CCc1cccc(OC)c1CC1=NCCN1 [Example 9]"
endpoint_value = "0.01 µM"

[[record]]
compound = "FC(F)(F)c1cccc(CC2=NCCN2)c1Cl [Example 59]"
endpoint_value = "0.041 µM"

[[record]]
compound = "CCOc1ccc(CC)c(Cc2ncc[nH]2)c1CC [Example 217]"
endpoint_value = "0.024 µM"

[[record]]
compound = "Cc1ccc2ccccc2c1CC1=NCCN1 [Example 154]"
endpoint_value = "0.01 µM"

[[record]]
compound = "COc1cccc(C)c1CC1=NCCN1 [Example 10]"
endpoint_value = "0.023 µM"

